# Test system: Staphylococcus aureus 209P IAM 1011
# assay.summary: MIC, agar streak method, Staphylococcus aureus 209P IAM 1011
# Format: cell-based
# condition.summary: Heart infusion agar

compound	MIC
COC(=O)C1c2cc3c(c(O)c2C(OC2CC(N(C)C)C(OC4CC(O)C(OC5CCC(=O)C(C)O5)C(C)O4)C(C)O2)CC1(O)CC(C)=O)C(=O)c1c(O)cccc1C3=O (stereo not shown)	0.78 µg/mL
COC(=O)C1c2cc3c(c(O)c2C(OC2CC(N(C)C)C(OC4CC5OC6CC(=O)C(C)OC6OC5C(C)O4)C(C)O2)CC1(C)O)C(=O)c1c(O)cccc1C3=O (stereo not shown)	0.39 µg/mL
COC(=O)C1c2cc3c(c(O)c2C(OC2CC(N(C)C)C(OC4CC(O)C(OC5CCC(=O)C(C)O5)C(C)O4)C(C)O2)CC1(C)O)C(=O)c1c(O)cccc1C3=O (stereo not shown)	1.56 µg/mL
COC(=O)C1c2cc3c(c(O)c2C(OC2CC(N(C)C)C(OC4CC5OC6CC(=O)C(C)OC6OC5C(C)O4)C(C)O2)CC1(O)CC(C)=O)C(=O)c1c(O)cccc1C3=O (stereo not shown)	0.78 µg/mL
